The entries below come with measured Qpatch IC50 values attached.
molecular target: Rhesus Nav1.7α (rhesus, UniProt Q15858 1-1988 (human entry)); experiment: cell-based or functional assay
Supply the numeric figure in nM, leaving out any unit text.

These recorded examples may help you get a feel for the data.
Binder	Value Reported
F010302379 (bispecific antibody, also called F0103275B05(E1D, N93R)-50GS-F0103500E03(P14A, L108Q)-FLAG3-HIS6) DVQLVESGGGLVQPGGSLRLSCAASGSIFNINSMAWYRRAPGKQRELVASSTNGGSTNYADSVKGRFTISRDNAKRVYLQMNSLTPEDTAVYYCRALLQPSIYDISRTYWGQGTLVTVSSGGGGSGGGGSGGGGSGGGGSGGGGSGGGGSGGGGSGGGGSGGGGSGGGGSEVQLVESGGGLVQAGGSLRLSCAASGRTFSRYQMGWFRQAPGKEREFVAYISWSGSTRYVDSVKGRFTISRDNAKNTVYLQMNSLKPEDTAVYHCAAGTAGIISSRPETYDSWGQGTQVTVSSGAADYKDHDGDYKDHDIDYKDDDDKGAAHHHHHH	133
F010302375 (bispecific antibody, also called F0103275B05(E1D, N93R)-50GS-F0103478E09(L108Q)-FLAG3-HIS6) DVQLVESGGGLVQPGGSLRLSCAASGSIFNINSMAWYRRAPGKQRELVASSTNGGSTNYADSVKGRFTISRDNAKRVYLQMNSLTPEDTAVYYCRALLQPSIYDISRTYWGQGTLVTVSSGGGGSGGGGSGGGGSGGGGSGGGGSGGGGSGGGGSGGGGSGGGGSGGGGSEVQLVESGGGLVQAGGSLRLSCAASGRAFSTLAMGWFRQAPGKEREFVAAISRNGNNSATGDSLKGRFTISRDSTKSTVFLQMNTLKPEDTAVYYCAAISTPSASHPYVRKESYRYWGQGTQVTVSSGAADYKDHDGDYKDHDIDYKDDDDKGAAHHHHHH	93
F010302378 (bispecific antibody, also called F0103275B05(E1D, N93R)-50GS-F0103495F09-FLAG3-HIS6) DVQLVESGGGLVQPGGSLRLSCAASGSIFNINSMAWYRRAPGKQRELVASSTNGGSTNYADSVKGRFTISRDNAKRVYLQMNSLTPEDTAVYYCRALLQPSIYDISRTYWGQGTLVTVSSGGGGSGGGGSGGGGSGGGGSGGGGSGGGGSGGGGSGGGGSGGGGSGGGGSEVQLVESGGGLVQAGSSLSLSCAASGRALSTYAMGWFRQAPGKEREFVARISRSGITTYYTDSVKGRFTISRDRAKDTVYLQMNSLKPEDTAIYLCAADASTNPAGYYLRNRYDYWGQGTLVTVSSGAADYKDHDGDYKDHDIDYKDDDDKGAAHHHHHH	103

We next turn to a different binder, shown below.
[Q] Dear colleague, I am looking for the recorded Qpatch IC50 of the following binder: F010302377 (bispecific antibody, also called F0103275B05(E1D, N93R)-50GS-F0103492E09-FLAG3-HIS6) DVQLVESGGGLVQPGGSLRLSCAASGSIFNINSMAWYRRAPGKQRELVASSTNGGSTNYADSVKGRFTISRDNAKRVYLQMNSLTPEDTAVYYCRALLQPSIYDISRTYWGQGTLVTVSSGGGGSGGGGSGGGGSGGGGSGGGGSGGGGSGGGGSGGGGSGGGGSGGGGSEVQLVESGGGLVQAGGSLRLSCAASKSILSFAYMRWYRQAPGKQREFVASIAIGGATSYTDSVKGRFTISRDNAKNTVYLQMNSLKPEDTAVYYCSAPAGQYRGQGTLVTVSSGAADYKDHDGDYKDHDIDYKDDDDKGAAHHHHHH
[A] 104
